Entry source: patent US11566007B2

Molecular target: KRAS G12S (Homo sapiens (Human), UniProt P01116+P62937, G12S)
Sequence (P01116-2 other isoform, or with tags, fused parts or gaps G12S, one chain of several): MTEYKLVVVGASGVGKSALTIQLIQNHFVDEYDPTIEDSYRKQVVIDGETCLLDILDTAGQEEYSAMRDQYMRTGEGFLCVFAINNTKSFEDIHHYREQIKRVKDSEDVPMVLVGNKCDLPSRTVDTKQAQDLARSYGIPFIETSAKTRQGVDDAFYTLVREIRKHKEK
Experiment: Ras-Raf (BRAF RBD) disruption / FRET / MOA assay, KRAS G12S
Assay type: biochemical
Details: Ras-Raf disruption/FRET/MOA assay; class symbols; read-out: KRAS G12S FRET data IC50
Assay metric: IC50

Field IC50 (entry CCn1c(-c2cccnc2[C@H](C)OC)c2c3cc(ccc31)-c1cccc(c1)C[C@H](NC(=O)[C@H](C(C)C)N(C)C(=O)[C@H]1CCN(C(=O)C#CC3(N(C)C)CCOC3)C1)C(=O)N1CCC[C@H](N1)C(=O)OCC(C)(C)C2 (some centres unmarked) ) reads 1000 to 10000 nM

Form field IC50, entry CO[C@@H](C)c1ncccc1-c1c2c3cc(ccc3n1CC(F)(F)F)-c1nc(nn1C)C[C@H](NC(=O)[C@H](C(C)C)N(C)C(=O)C1(F)CCN(C(=O)C#CC(C)(C)N(C)C)CC1)C(=O)N1CCC[C@H](N1)C(=O)OCC(C)(C)C2 (atropisomer, axis not shown) : 10 to 100 nM

###

Target: K-Ras G12C (Homo sapiens (Human), UniProt P01116+P62937, G12C)
Sequence (P01116-2 other isoform, or with tags, fused parts or gaps G12C, one chain of several): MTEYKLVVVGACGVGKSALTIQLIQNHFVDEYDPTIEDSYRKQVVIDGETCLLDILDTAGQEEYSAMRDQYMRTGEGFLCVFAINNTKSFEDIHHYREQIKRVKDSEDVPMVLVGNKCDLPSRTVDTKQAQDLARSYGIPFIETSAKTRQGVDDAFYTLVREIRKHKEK
Test: Ras-Raf (BRAF RBD) disruption / FRET / MOA assay, KRAS G12C
Type: biochemical
Settings: KRAS G12C; Ras-Raf disruption/FRET/MOA assay; read-out: IC50* KRAS G12C FRET data
Assay metric: IC50

// sample CCn1c(-c2cccnc2[C@H](C)OC)c2c3cc(ccc31)-c1cccc(c1)C[C@H](NC(=O)[C@H](C(C)C)N1CC[C@]3(CCN(C(=O)C#C[C@@H]4COCCN4C)C3)C1=O)C(=O)N1CCC[C@H](N1)C(=O)OCC(C)(C)C2 (atropisomer, axis not shown) , its IC50 was 10 to 100 nM

Entry C#CCn1c(-c2cccnc2[C@H](C)OC)c2c3cc(ccc31)-c1cccc(c1)C[C@H](NC(=O)[C@H](C(C)C)N(C)C(=O)[C@H]1CCN(C(=O)C=C)C1)C(=O)N1CCC[C@H](N1)C(=O)OCC(C)(C)C2 (atropisomer, axis not shown) — recorded IC50 = 100 to 1000 nM

###

Biological target: K-Ras G12C (Homo sapiens (Human), UniProt P01116+P62937, G12C)
Test: Ras-Raf (BRAF RBD) disruption / FRET / MOA assay, KRAS G12C
Type: biochemical
Conditions: KRAS G12C; Ras-Raf disruption/FRET/MOA assay; read-out: IC50* KRAS G12C FRET data
pIC50: −log10 of the molar value.
Assay metric: pIC50

The measured pIC50 associated with C=CC(=O)N(C)C[C@H]1CCN(C(=O)N(C)[C@H](C(=O)N[C@H]2Cc3nc(cs3)-c3ccc4c(c3)c(c(-c3cccnc3[C@H](C)OC)n4CC)CC(C)(C)COC(=O)[C@@H]3CCCN(N3)C2=O)C(C)C)C1 (atropisomer, axis not shown) reads 7.00 to 8.00

Lab note: CCn1c(-c2cccnc2)c2c3cc(ccc31)-c1cc(O)cc(c1)C[C@H](NC(=O)[C@H](C(C)C)N(C)C(=O)[C@H]1CCN(C(=O)C#CCN(C)C)C1)C(=O)N1CCC[C@H](N1)C(=O)OCC(C)(C)C2 gave pIC50 of 7.00 to 8.00

Kindly note the recorded pIC50 for C=CC(=O)N1CC[C@@]2(CCN2C(=O)N(C)[C@H](C(=O)N[C@H]2Cc3nc(cs3)-c3ccc4c(c3)c(c(-c3cccnc3[C@H](C)OC)n4CC)CC(C)(C)COC(=O)[C@@H]3CCCN(N3)C2=O)C(C)C)C1 (atropisomer, axis not shown) , which is 7.00 to 8.00

Lookup result for C=CC(=O)N1CC[C@H](C(=O)N(C)[C@H](C(=O)N[C@H]2Cc3cccc(n3)-c3ccc4c(c3)c(c(-c3cccnc3[C@H](C)OC)n4CC)CC(C)(C)COC(=O)[C@@H]3CCCN(N3)C2=O)C(C)C)C1 (atropisomer, axis not shown) ; measured pIC50: 6.00 to 7.00

The reported pIC50 of the compound CO[C@@H](C)c1ncccc1-c1c2c3cc(ccc3n1CC(F)(F)F)-c1cccc(c1)C[C@H](NC(=O)[C@@H](COC1CN(C(=O)C#CC3(C)OCCO3)C1)C(C)C)C(=O)N1CCC[C@H](N1)C(=O)OCC(C)(C)C2 (atropisomer, axis not shown) was 7.00 to 8.00

The reported pIC50 of the compound CCn1c(-c2cccnc2[C@H](C)OC)c2c3cc(ccc31)-c1cccc(c1)C[C@H](NC(=O)[C@H](C(C)C)N1CCC3(CN(C(=O)C#CC(C)(C)N(C)C)C3)C1=O)C(=O)N1CCC[C@H](N1)C(=O)OCC(C)(C)C2 (atropisomer, axis not shown) was > 8.00

// sample C=CC(=O)N1CC[C@H](C(=O)N(C)[C@H](C(=O)N[C@H]2Cc3nc(cs3)-c3ccc4c(c3)c(c(-c3cc5c(nc3[C@H](C)OC)CCN(C)C5)n4CC)CC(C)(C)COC(=O)[C@@H]3CCCN(N3)C2=O)C(C)C)C1 (atropisomer, axis not shown) , its pIC50 was 6.00 to 7.00

The compound listed as C=CC(=O)N1CCN(C(=O)N(C)[C@H](C(=O)N[C@H]2Cc3nc(cs3)-c3ccc4c(c3)c(c(-c3cccnc3[C@H](C)OC)n4CC)CC(C)(C)COC(=O)[C@@H]3CCCN(N3)C2=O)C(C)C)C2(CC2)C1 (atropisomer, axis not shown) shows pIC50 equal to 6.00 to 7.00

###

Kindly supply the reported IC50 values for the records listed here.
Target: KRAS G12S (Homo sapiens (Human), UniProt P01116+P62937, G12S)
Test: Ras-Raf (BRAF RBD) disruption / FRET / MOA assay, KRAS G12S
Type: biochemical
Conditions: Ras-Raf disruption/FRET/MOA assay; class symbols; read-out: KRAS G12S FRET data IC50

Reported IC50 of C=CC(=O)N1CC2(CCN2C(=O)N(C)[C@H](C(=O)N[C@H]2Cc3nc(cs3)-c3ccc4c(c3)c(c(-c3cccnc3[C@H](C)OC)n4CC)CC(C)(C)COC(=O)[C@@H]3CCCN(N3)C2=O)C(C)C)C1 (atropisomer, axis not shown) : 100 to 1000 nM

Query CCn1c(-c2cccnc2[C@H](C)OC)c2c3cc(ccc31)-c1csc(n1)C[C@H](NC(=O)[C@H](C(C)C)N1CC[C@]3(CCN(C(=O)C#CC(C)(C)N(C)C)C3)C1=O)C(=O)N1CCC[C@H](N1)C(=O)OCC(C)(C)C2 (atropisomer, axis not shown) yields IC50 of 1000 to 10000 nM

Noted for C=CC(=O)N1CC[C@H](C(=O)N(C)[C@H](C(=O)N[C@H]2Cc3nc(cs3)-c3ccc4c(c3)c(c(-c3cccnc3[C@H](C)OC)n4CC(F)(F)F)CC(C)(C)COC(=O)[C@@H]3CCCN(N3)C2=O)C(C)C)C1 (atropisomer, axis not shown) : its IC50 reads 100 to 1000 nM

Notebook: CCn1c(-c2cccnc2[C@H](C)OC)c2c3cc(ccc31)-c1cccc(c1)C[C@H](NC(=O)C(COC1CN(C(=O)C#CC(C)(C)N(C)C)C1)C(C)C)C(=O)N1CCC[C@H](N1)C(=O)OCC(C)(C)C2 (stereo partly shown) , IC50 read as > 10000 nM

###

Target: NRAS G12C (Homo sapiens (Human), UniProt P01111+P62937, G12C)
Sequence (P01111 whole entry G12C): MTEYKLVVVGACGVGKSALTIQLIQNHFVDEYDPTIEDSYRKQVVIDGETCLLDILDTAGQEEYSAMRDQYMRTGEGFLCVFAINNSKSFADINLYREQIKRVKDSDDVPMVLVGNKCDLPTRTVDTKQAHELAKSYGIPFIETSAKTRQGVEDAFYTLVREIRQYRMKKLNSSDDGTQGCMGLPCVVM
Sequence (P62937 whole entry): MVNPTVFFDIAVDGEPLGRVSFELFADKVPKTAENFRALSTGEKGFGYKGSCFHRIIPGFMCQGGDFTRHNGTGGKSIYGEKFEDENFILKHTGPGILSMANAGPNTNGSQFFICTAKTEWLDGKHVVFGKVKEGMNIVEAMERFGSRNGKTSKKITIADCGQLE
Experiment: Ras-Raf (BRAF RBD) disruption / FRET / MOA assay, NRAS G12C
Assay type: biochemical
Settings: read-out: IC50* NRAS G12C FRET data
pIC50: −log10 of the molar value.
Give pIC50 for every item shown.

pIC50 reported for this compound C=CC(=O)Nc1cnc(C(=O)N(C)[C@H](C(=O)N[C@H]2Cc3cc(O)cc(c3)-c3ccc4c(c3)c(c(-c3cccnc3[C@H](C)OC)n4CC)CC(C)(C)COC(=O)[C@@H]3CCCN(N3)C2=O)C(C)C)s1 (atropisomer, axis not shown) [Example A254] : 6.00 to 7.00

Lab note: measured pIC50 of CCn1c(-c2cccnc2[C@H](C)OC)c2c3cc(ccc31)-c1cc(O)cc(c1)C[C@H](NC(=O)[C@H](C(C)C)N1CCC3(CCN(C(=O)/C=C/CN(C)C)CC3)C1=O)C(=O)N1CCC[C@H](N1)C(=O)OCC(C)(C)C2 (atropisomer, axis not shown) [Example A267] was 7.00 to 8.00

pIC50 recorded for this compound, C=CC(=O)Nc1ccc(C(=O)N(C)[C@H](C(=O)N[C@H]2Cc3cc(O)cc(c3)-c3ccc4c(c3)c(c(-c3cccnc3[C@H](C)OC)n4CC)CC(C)(C)COC(=O)[C@@H]3CCCN(N3)C2=O)C(C)C)nc1 (atropisomer, axis not shown) [Example A252] , is 7.00 to 8.00

Item: C=CC(=O)N1CC[C@H](C(=O)N(C)[C@H](C(=O)N[C@H]2Cc3cc(ccn3)-c3ccc4c(c3)c(c(-c3cccnc3COC)n4CC)CC(C)(C)COC(=O)[C@@H]3CCCN(N3)C2=O)C(C)C)C1 [Example A136] | pIC50: 5.00 to 6.00

Consider CCn1c(-c2cccnc2[C@H](C)OC)c2c3cc(ccc31)-c1cc(O)cc(c1)C[C@H](NC(=O)[C@H](C(C)C)N(C)C(=O)C1CN(C(=O)/C=C/CN(C)C)C1)C(=O)N1CCC[C@H](N1)C(=O)OCC(C)(C)C2 (atropisomer, axis not shown) [Example A257] . Its measured pIC50 is > 8.00

response.value for CC#CC(=O)N1CC[C@H](C(=O)N(C)[C@H](C(=O)N[C@H]2Cc3nc(ns3)-c3ccc4c(c3)c(c(-c3cccnc3[C@H](C)OC)n4CC)CC(C)(C)COC(=O)[C@@H]3CCCN(N3)C2=O)C(C)C)C1 (atropisomer, axis not shown) [Example A289] (field: pIC50) = 5.00 to 6.00

// C=CC(=O)N1CC[C@H](C(=O)N(C)[C@H](C(=O)N[C@H]2Cc3cc(O)cc(c3)-c3ccc4c(c3)c(c(-c3cccc5c3COC5)n4CC)CC(C)(C)COC(=O)[C@@H]3CCCN(N3)C2=O)C(C)C)C1 [Example A227] : pIC50 value = 6.00 to 7.00

Entry C=CC(=O)N(C)[C@@H]1C[C@@H](C)N(C(=O)N(C)[C@H](C(=O)N[C@H]2Cc3nc(cs3)-c3ccc4c(c3)c(c(-c3cccnc3[C@H](C)OC)n4CC)CC(C)(C)COC(=O)[C@@H]3CCCN(N3)C2=O)C(C)C)C1 (atropisomer, axis not shown) [Example A634] — recorded pIC50 = 7.00 to 8.00

Record C=CS(=O)(=O)N1CCC2(CCN([C@H](C(=O)N[C@H]3Cc4cc(O)cc(c4)-c4ccc5c(c4)c(c(-c4cccnc4[C@H](C)OC)n5CC)CC(C)(C)COC(=O)[C@@H]4CCCN(N4)C3=O)C(C)C)C2=O)C1 (stereo partly drawn) [Example A298] , field pIC50: > 8.00

Notebook: CCn1c(-c2cccnc2[C@H](C)OC)c2c3cc(ccc31)-c1csc(n1)C[C@H](NC(=O)[C@H](C(C)C)N(C)C(=O)N1CCN(C(=O)/C=C/CN(C)C)C3(CC3)C1)C(=O)N1CCC[C@H](N1)C(=O)OCC(C)(C)C2 (atropisomer, axis not shown) [Example A701] , pIC50 read as 7.00 to 8.00

// field: pIC50; key: C=CC(=O)N1CC[C@H](C(=O)N(C)[C@H](C(=O)N[C@H]2Cc3cc(O)cc(c3)-c3ccc4nc(-c5cccnc5COC)c(n4c3)CC(C)(C)COC(=O)[C@@H]3CCCN(N3)C2=O)C(C)C)C1 [Example A243] ; value = < 5.00

Reported pIC50 ( C=CS(=O)(=O)N1CCC(C(=O)N(C)[C@H](C(=O)N[C@H]2Cc3cccc(c3)-c3ccc4c(c3)c(c(-c3cncnc3)n4CC)CC(C)(C)COC(=O)[C@@H]3CCCN(N3)C2=O)C(C)C)C1 (single isomer, unassigned) [Example A171] ) = 5.00 to 6.00

Query CCn1c(-c2cccnc2[C@H](C)OC)c2c3cc(ccc31)-c1cccc(c1)C[C@H](NC(=O)[C@@H](COC1CN(C(=O)C#CC(C)(C)N(C)C(C)C)C1)C(C)C)C(=O)N1CCC[C@H](N1)C(=O)OCC(C)(C)C2 (atropisomer, axis not shown) [Example A599] yields pIC50 of 7.00 to 8.00

Lab book: pIC50 of C=CC(=O)N1CC(OC[C@H](C(=O)N[C@H]2Cc3nc(cs3)-c3ccc4c(c3)c(c(-c3cccnc3[C@H](C)OC)n4CC)CC(C)(C)COC(=O)[C@@H]3CCCN(N3)C2=O)C(C)C)C1 (atropisomer, axis not shown) [Example A462] noted as 6.00 to 7.00

Record C=CC(=O)N1CC(OCC(C(=O)N[C@H]2Cc3nc(cs3)-c3ccc4c(c3)c(c(-c3cccnc3[C@H](C)OC)n4CC)CC(C)(C)COC(=O)[C@@H]3CCCN(N3)C2=O)C(C)C)C1 (mixture of isomers) [Example A473] , field pIC50: 6.00 to 7.00
